All figures here come from paper PMC8879074.

Biological target: human EP3 (Homo sapiens)
Sequence (P43115 1-390): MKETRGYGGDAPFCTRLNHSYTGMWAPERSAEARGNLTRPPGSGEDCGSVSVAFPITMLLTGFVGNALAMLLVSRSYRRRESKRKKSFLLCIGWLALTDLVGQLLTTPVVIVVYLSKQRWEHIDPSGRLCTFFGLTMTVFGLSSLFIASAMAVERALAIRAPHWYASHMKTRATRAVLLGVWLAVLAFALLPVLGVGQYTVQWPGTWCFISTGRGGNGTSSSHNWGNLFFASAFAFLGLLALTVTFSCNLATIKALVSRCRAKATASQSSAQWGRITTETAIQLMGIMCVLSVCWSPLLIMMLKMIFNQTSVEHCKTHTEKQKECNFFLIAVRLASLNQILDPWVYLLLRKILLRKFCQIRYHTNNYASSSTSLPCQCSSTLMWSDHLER
Assay: Calcium flux assay, human EP3
Details: CHO-Gα16 cells, PGE2 (EC80)

Compound: C[C@H](NC(=O)c1c(Cc2cccc(C(F)(F)F)c2)sc2c1CCOC2)c1ccc(C(=O)O)cc1 [L001]
IC50: > 10 µM
